measurement.type: melting point

Completed entries (count: 5):
- CN(CC=CC(=O)Nc1cc2c(Nc3ccc(F)c(Cl)c3)ncnc2cc1OCC1CC1)CC1CCOCC1: 141 °C
- CN(CC=CC(=O)Nc1cc2c(Nc3ccc(F)c(Cl)c3)ncnc2cc1OC1CCCC1)C[C@H]1CCCO1: 117 to 121 °C
- O=C(C=CCN1CCOCC1)Nc1cc2c(Nc3ccc(F)c(Cl)c3)ncnc2cc1O[C@H]1CCOC1: 184 to 185 °C
- CCN(C)CC=CC(=O)Nc1cc2c(Nc3ccc(F)c(Cl)c3)ncnc2cc1O[C@H]1CCOC1: 154 to 157 °C
- O=C(C=CCN1CCOCC1)Nc1cc2c(Nc3ccc(F)c(Cl)c3)ncnc2cc1OCC1CCOCC1: 174 °C

Lab book: melting point of COCCN(CC=CC(=O)Nc1cc2c(Nc3ccc(F)c(Cl)c3)ncnc2cc1OCC1CCOCC1)CCOC noted as 100 to 102 °C

Lab book: melting point of CN(C)CC=CC(=O)Nc1cc2c(Nc3ccc(F)c(Cl)c3)ncnc2cc1OC[C@H]1CCCO1 noted as 110 to 112 °C

Lab book: melting point of CN(CC=CC(=O)Nc1cc2c(Nc3ccc(F)c(Cl)c3)ncnc2cc1OC1CCCC1)C1CC1 noted as 140 °C

Lab book: melting point of CN(CC=CC(=O)Nc1cc2c(Nc3ccc(F)c(Cl)c3)ncnc2cc1OCC1CC1)C[C@H]1CCCO1 noted as 149 to 153 °C

---

Below, each entry is listed alongside its reported pIC50.
biological target: human EGF-receptor kinase (Homo sapiens, UniProt P00533); construct: GST; assay: Inhibition of human EGF-receptor kinase (ELISA, bio-pEY substrate); conditions: cytoplasmic tyrosine kinase domain (Met664-Ala1186) as GST fusion protein; substrate pEY (4:1)/bio-pEY; 30 minutes at ambient temperature
Sequence (P00533 688-1210): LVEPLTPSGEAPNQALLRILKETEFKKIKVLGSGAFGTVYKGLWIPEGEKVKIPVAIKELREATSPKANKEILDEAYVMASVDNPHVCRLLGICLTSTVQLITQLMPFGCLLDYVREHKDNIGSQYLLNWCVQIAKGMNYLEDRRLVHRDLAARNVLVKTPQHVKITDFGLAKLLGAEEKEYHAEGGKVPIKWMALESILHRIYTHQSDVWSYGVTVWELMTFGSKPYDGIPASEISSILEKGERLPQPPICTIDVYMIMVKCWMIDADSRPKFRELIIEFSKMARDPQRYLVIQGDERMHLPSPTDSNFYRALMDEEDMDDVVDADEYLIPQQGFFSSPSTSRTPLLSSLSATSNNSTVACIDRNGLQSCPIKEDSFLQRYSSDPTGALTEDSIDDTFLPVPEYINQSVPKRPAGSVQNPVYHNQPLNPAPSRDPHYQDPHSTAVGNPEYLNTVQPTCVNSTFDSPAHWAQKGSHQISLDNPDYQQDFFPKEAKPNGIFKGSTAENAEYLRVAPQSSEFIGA
The scale used: pIC50 is minus the common logarithm of the concentration in molar units.

Completed entries (count: 2):
* COCCN(C)CC=CC(=O)Nc1cc2c(Nc3ccc(F)c(Cl)c3)ncnc2cc1OCC1CC1 | 9.15
* CN(CC=CC(=O)Nc1cc2c(Nc3ccc(F)c(Cl)c3)ncnc2cc1OC1CCCC1)C1CC1 | 9.00

Could you now consider this next compound?
# pIC50 measured on human EGF-receptor kinase (Homo sapiens, UniProt P00533) for item CN(C)CC=CC(=O)Nc1cc2c(Nc3ccc(F)c(Cl)c3)ncnc2cc1OC1CCCC1 = 9.22
